Give pKi for every item shown.
biological target: MTAN (Escherichia coli, UniProt P0AF12); assay: Enzyme inhibition assay, MTAN (slow-onset inhibition constants); assay type: biochemical; conditions: MTAN; equilibrium dissociation constant after slow-onset, tight binding inhibition; read-out: Ki*
Sequence (P0AF12 whole entry): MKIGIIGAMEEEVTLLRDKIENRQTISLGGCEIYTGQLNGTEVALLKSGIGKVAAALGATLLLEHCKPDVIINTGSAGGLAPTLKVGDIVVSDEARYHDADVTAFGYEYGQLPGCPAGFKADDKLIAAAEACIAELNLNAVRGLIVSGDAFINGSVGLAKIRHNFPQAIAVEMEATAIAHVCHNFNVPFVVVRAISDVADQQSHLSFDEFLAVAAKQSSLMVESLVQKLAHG
Give bare numbers, as −log10 of the molar value.

CCC[C@H]1N[C@@H](c2c[nH]c3c(N)ncnc23)[C@H](O)[C@@H]1O [5′-deoxy-5′-ethyl-ImmA]
10.42

# next compound below
Report pKi for Nc1ncnc2c([C@@H]3N[C@H](CSc4ccccc4)[C@H](O)C3O)c[nH]c12 (some centres unmarked) please.
10.49

###

molecular target: human MTAP (Homo sapiens, UniProt Q13126); construct: inferred from pQE32 vector and Ni-NTA purification) (N); made in house; host or cells: E. coli; assay: Enzyme inhibition assay, MTAP (slow-onset inhibition constants); type: biochemical; settings: MTAP; initial inhibition constant; read-out: Ki
Sequence (Q13126 whole entry): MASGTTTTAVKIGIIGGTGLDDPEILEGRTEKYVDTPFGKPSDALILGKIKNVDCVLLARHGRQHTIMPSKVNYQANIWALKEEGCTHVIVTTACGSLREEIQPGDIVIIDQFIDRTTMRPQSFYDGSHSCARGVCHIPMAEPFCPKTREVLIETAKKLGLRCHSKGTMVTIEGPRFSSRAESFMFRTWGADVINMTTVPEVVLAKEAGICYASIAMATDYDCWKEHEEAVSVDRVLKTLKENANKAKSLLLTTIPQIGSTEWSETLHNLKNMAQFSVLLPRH
Counter-ions that a name gives are not always drawn.
Give Ki for every item shown.
Reply with the number, then its unit.

Field: example entries. Status: answers known.
COC[C@H]1N[C@@H](c2c[nH]c3c(N)ncnc23)[C@H](O)[C@@H]1O [5′-Methoxy-ImmA, hydrochloride]
70 nM
Nc1ncnc2c([C@@H]3N[C@H](CSc4ccc(F)cc4)[C@H](O)C3O)c[nH]c12 (stereo partly shown)
3 nM
CSC[C@H]1N[C@@H](c2n[nH]c3c(N)ncnc23)C(O)[C@H]1O (stereo partly shown)
7 nM

Report Ki for Nc1ncnc2c([C@@H]3N[C@H](CSCCO)[C@H](O)C3O)c[nH]c12 (stereo partly shown) [5′-Hydroxyethylthio-ImmA] please.
22 nM

###

biological target: human MTAP (Homo sapiens); construct: inferred from pQE32 vector and Ni-NTA purification) (N); made in house; host or cells: E. coli; test: Enzyme inhibition assay, MTAP (slow-onset inhibition constants); type: biochemical; settings: MTAP; equilibrium dissociation constant after slow-onset, tight binding inhibition; read-out: Ki*
testReadout: Ki (nM)
Numbers only, in nM.

Cc1cccc(SC[C@H]2N[C@@H](c3c[nH]c4c(N)ncnc34)C(O)[C@H]2O)c1 (stereo partly shown)
0.146
CSC[C@H]1N[C@@H](c2n[nH]c3c(N)ncnc23)C(O)[C@H]1O (stereo partly shown)
0.76
Cc1ccc(SC[C@H]2N[C@@H](c3c[nH]c4c(N)ncnc34)C(O)[C@H]2O)cc1 (stereo partly shown)
0.252

// lookup Ki | system=human MTAP (Homo sapiens) | key= Nc1ncnc2c([C@@H]3N[C@H](CSc4ccccc4)[C@H](O)C3O)c[nH]c12 (stereo partly shown)
0.082

###

Target: MTAN (Escherichia coli, UniProt P0AF12)
Experiment: Enzyme inhibition assay, MTAN (slow-onset inhibition constants)
Type: biochemical
Conditions: Ki, MTAN; initial inhibition constant
Method: Ki as shown in Tables 1 and 2 is the initial inhibition constant formed by the enzyme-inhibitor complex, and Ki* is the equilibrium dissociation constant for inhibition that is observed following a period of slow-onset, tight binding inhibition. […] Inhibitors.—Inhibitor concentrations were determined by the UV absorbance spectrum using the published millimolar extinction coefficients for 9-dazadenine of 8.5 at 275 nm at pH 7.0. […] And the Ki* was calculated by fitting to the following expression […]
Counter-ions that a name gives are not always drawn.
testReadout: pKi
Give bare numbers, as −log10 of the molar value.

Field: example entries. Status: answers known.
COC[C@H]1N[C@@H](c2c[nH]c3c(N)ncnc23)[C@H](O)[C@@H]1O [5′-Methoxy-ImmA, hydrochloride]
8.00
Nc1ncnc2c([C@@H]3N[C@H](CSc4cccc(Cl)c4)[C@H](O)C3O)c[nH]c12 (stereo partly shown) [5′-(m-Chloro-Phenyl-thio)-ImmA]
10.36
C[C@H]1N[C@@H](c2c[nH]c3c(N)ncnc23)[C@H](O)[C@@H]1O [5′-deoxy-ImmA, hydrochloride]
7.89

# next molecule below
Report pKi for Nc1ncnc2c([C@@H]3N[C@H](CSc4ccc(F)cc4)[C@H](O)C3O)c[nH]c12 (stereo partly shown) [5′-(p-Fluoro-phenyl-thio)-ImmA] please.
10.09
